Biological target: Adenosine receptor A3 (Homo sapiens)
Sequence (P0DMS8 whole entry): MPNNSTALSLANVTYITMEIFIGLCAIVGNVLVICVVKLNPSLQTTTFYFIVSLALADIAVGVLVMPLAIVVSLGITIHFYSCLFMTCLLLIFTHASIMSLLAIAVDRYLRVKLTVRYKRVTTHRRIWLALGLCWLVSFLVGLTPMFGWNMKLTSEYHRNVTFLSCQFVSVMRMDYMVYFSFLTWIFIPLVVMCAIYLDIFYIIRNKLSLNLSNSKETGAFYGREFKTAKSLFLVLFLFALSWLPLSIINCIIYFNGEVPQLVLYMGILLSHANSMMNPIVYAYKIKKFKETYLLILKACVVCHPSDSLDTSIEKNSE
Test: Displacement of [3H]MRE 3008F20 from human adenosine A3 receptor expressed in CHO cells
Type: cell-based
Kindly supply the reported log10(Ki) values for the records listed here.
A difference of one corresponds to tenfold Ki; all values are log10 with Ki in µM.

Lookup: Specify the recorded log10(Ki) for `O=C(Nc1cccnc1)Nc1nc2nn(CCO)cc2c2nc(-c3ccco3)nn12` , system: Adenosine receptor A3 (Homo sapiens).
Found: -1.47

Lookup: Recall the reported log10(Ki) of `CCn1cc2c(nc(NC(=O)Nc3ccc(F)cc3)n3nc(-c4ccco4)nc23)n1` when tested on Adenosine receptor A3 (Homo sapiens).
Found: -3.07

Lookup: Find log10(Ki) for `CCOC(=O)c1c(C)nc(-c2ccccc2)c(C(=O)OCC)c1CC` on Adenosine receptor A3 (Homo sapiens) and write it down.
Found: -0.74

Lookup: Return reported log10(Ki) for target or system Adenosine receptor A3 (Homo sapiens), item `CCOC(=O)c1c(-c2ccccc2)nc(CC)c(C(=O)SCC)c1CC` .
Found: -1.87

Lookup: Report measured log10(Ki) on Adenosine receptor A3 (Homo sapiens); entry: `CCn1cc2c(nc(NC(=O)Nc3ccccc3OC)n3nc(-c4ccco4)nc23)n1`
Found: -3.25

Lookup: Give measured log10(Ki) for `CCCOC(=O)c1c(-c2ccccc2)nc(CC)c(C(=O)OCC)c1CCC` (Adenosine receptor A3 (Homo sapiens)).
Found: -1.72

Lookup: Using Adenosine receptor A3 (Homo sapiens) as the test system, report measured log10(Ki) of `CCOC(=O)c1c(CC)c(C(=O)OCC)c(-c2ccccc2)[n+](C)c1C` .
Found: -0.42

Lookup: With Adenosine receptor A3 (Homo sapiens) as the test system, provide measured log10(Ki) for this compound: `Cc1cccnc1-c1nc(NC(=O)Nc2ccccc2)c2ccccc2n1`
Found: -0.59

Lookup: Give reported log10(Ki) for `O=C(Nc1ccncc1)Nc1nc2nn(CCOCc3ccccc3)cc2c2nc(-c3ccco3)nn12` (Adenosine receptor A3 (Homo sapiens))
Found: -1.57

Lookup: Quote log10(Ki) with test system Adenosine receptor A3 (Homo sapiens) for `CCOC(=O)c1c(CC)nc(-c2ccccc2)c(C(=O)OCC)c1CC`
Found: -0.92

----------
Target chain: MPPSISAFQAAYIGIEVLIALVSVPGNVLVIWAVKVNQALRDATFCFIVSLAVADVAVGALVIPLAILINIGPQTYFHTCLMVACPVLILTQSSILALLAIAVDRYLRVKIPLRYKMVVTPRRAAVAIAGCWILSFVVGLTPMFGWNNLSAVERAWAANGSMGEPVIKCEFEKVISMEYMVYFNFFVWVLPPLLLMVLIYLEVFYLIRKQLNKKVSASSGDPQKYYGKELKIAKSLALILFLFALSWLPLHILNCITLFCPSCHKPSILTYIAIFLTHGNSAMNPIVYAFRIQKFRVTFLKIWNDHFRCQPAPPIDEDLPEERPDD
pKi: −log10 of the molar value.
outcome_measure: pKi

Lookup: Determine its reported pKi: `O=C(Nc1cccnc1)Nc1nc2nn(CCO)cc2c2nc(-c3ccco3)nn12`
Found: < 6.00
